Biological target: T1, human TREM2 (human, UniProt Q9NZC2 19-174, limits assumed)
T1 construct: also called triggering receptor expressed on myeloid cells 2
T1 sequence: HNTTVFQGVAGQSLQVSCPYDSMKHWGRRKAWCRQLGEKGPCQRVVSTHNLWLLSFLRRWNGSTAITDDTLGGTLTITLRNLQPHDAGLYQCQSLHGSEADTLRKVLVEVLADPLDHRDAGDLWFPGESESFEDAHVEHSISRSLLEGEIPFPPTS
Assay: 2nd screen, 10 nM
The reader will find reported Binding Signal values listed item by item below.
readout-name: Binding Signal

INSERT INTO results (binder, readout_name, result) VALUES
  ('V3 (antibody, V domains shown, also called 6E7 variant V3; LV-101/HV-101) VH: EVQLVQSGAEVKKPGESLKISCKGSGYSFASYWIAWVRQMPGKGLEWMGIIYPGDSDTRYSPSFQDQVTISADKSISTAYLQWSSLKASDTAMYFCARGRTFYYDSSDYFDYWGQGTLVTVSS VL: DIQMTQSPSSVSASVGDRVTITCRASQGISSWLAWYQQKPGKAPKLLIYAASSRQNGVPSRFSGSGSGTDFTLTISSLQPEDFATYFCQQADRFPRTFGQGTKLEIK', 'Binding Signal', '2.24 fold over 6E7 parental antibody'),
  ('V74 (antibody, V domains shown, also called 6E7 variant V74) VH: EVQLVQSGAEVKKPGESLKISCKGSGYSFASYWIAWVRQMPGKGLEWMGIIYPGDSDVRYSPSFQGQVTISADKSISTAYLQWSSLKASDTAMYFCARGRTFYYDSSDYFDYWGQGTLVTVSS VL: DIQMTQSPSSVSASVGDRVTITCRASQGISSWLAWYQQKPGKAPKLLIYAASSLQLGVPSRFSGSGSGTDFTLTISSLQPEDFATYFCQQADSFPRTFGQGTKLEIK', 'Binding Signal', '4.01 fold over 6E7 parental antibody'),
  ('V1 (antibody, V domains shown, also called 6E7 variant V1) VH: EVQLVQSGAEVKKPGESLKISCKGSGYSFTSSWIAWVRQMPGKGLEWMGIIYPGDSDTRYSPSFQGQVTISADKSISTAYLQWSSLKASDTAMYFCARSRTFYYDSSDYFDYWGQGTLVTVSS VL: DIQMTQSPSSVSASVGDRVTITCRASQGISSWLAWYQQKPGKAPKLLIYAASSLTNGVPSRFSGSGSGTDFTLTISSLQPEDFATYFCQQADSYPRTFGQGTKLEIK', 'Binding Signal', '1.92 fold over 6E7 parental antibody');
